# cell count per entry
Assay: blockers of VCAM1 upregulation by TNFa – imaging, TNFa stimulus, retest and dose response, confirmation (AID 1013);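 further: compound on cells 1 h before TNFa then 24 h more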
Settings: TNFa-stimulated cells, VCAM1 expression imaging; cell count; at 10 µM; stronger effect = lower value
experimental-readout: cell count (%)

1. O=C(NC(Nc1nc2ccc([N+](=O)[O-])cc2s1)(C(F)(F)F)C(F)(F)F)c1ccccc1 ... 46.9
2. NC(=S)N/N=C/c1ccc(-c2cc(Cl)ccc2Cl)o1 ... 90.8
3. Cc1cc(NC(=O)CSc2nc3ccccc3c(=O)n2C2CCCC2)no1 ... 111
4. COc1ccc(CS(=O)(=O)/C(Cl)=C(/Cl)C(=O)Nc2ccc(OC)nc2)cc1 ... 2.22
5. Cc1cccc2cc(C#N)c(SCC(=O)N3CC(=O)Nc4ccccc43)nc12 ... 110

---

Experiment: blockers of VCAM1 upregulation by TNFa – imaging, TNFa stimulus, retest and dose response, confirmation (AID 1013);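 further: compound on cells 1 h before TNFa then 24 h more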
Conditions: TNFa-stimulated cells, VCAM1 expression imaging; cell count; at 10 µM; stronger effect = lower value
experimental-readout: cell count (%)

1) CC(/C=N/NC(=O)c1cc(-c2ccc(Cl)cc2)nc2ccccc12)=C\c1ccco1 ... 116
2) Cc1nc([N+](=O)[O-])c(Br)n1CC(=O)c1ccc(Br)cc1 ... 116
3) CCc1ccc(C(=O)/C=C/c2ccc([N+](=O)[O-])o2)cc1 ... 94.9
4) COc1cc(-c2nnc3n2N=C(c2ccccc2)CS3)cc(OC)c1OC ... 99.8
5) CN1Cc2cc(C(=O)c3cc(Cl)cc(CSc4ncccn4)c3O)cnc2NC1=O ... 85.8
6) O=c1cc(C(Cl)(Cl)Cl)oc2c1ccc1ccccc12 ... 104
7) O=C1c2cccc3c([N+](=O)[O-])ccc(c23)C(=O)N1c1nccs1 ... 101
8) CCC1=Nc2cc(C(=O)NCCCOC)ccc2Sc2ccccc21 ... 34.9
9) O=C(OCn1ncc(Br)c(Br)c1=O)c1ccc(F)cc1 ... 2.02
10) COc1ccc(S(=O)(=O)Nc2cc3c(C(C)=O)c(C)oc3c3ccccc23)cc1 ... 113
11) CCCCCc1ccc(-c2ccc(=O)[nH]n2)cc1 ... 91
12) Cc1ccc(O)c(NC(=O)C2CC(c3c(F)cccc3Cl)=NO2)c1 (stereo not drawn) ... 105
13) COc1ccccc1-c1cc(C(F)(F)F)nc(S(=O)(=O)CCCC(=O)N2CCCCC2C)n1 (stereo not drawn) ... 88.8
14) CCN(CC)c1ccc(-c2nn3c(-c4ccccc4OC)nnc3s2)cc1 ... 31.6
15) COC(=O)C[C@]1(C(=O)OC)CN(C#N)N(c2ccc(Cl)cc2)C12c1ccccc1-c1ccccc12 ... 104
16) COc1ccc(C(=O)C(CN2CCCC2)c2ccccc2)cc1 (stereo not drawn) ... 73.4
17) CCN(CC)c1ccc(-c2nn3c(-c4n[nH]c5c4CCC5)nnc3s2)cc1 ... 57.7
18) COC(=O)c1ccccc1NC(=O)Cn1c(-c2nonc2N)nc2ccccc21 ... 104
19) CCCC1=Nc2cc(C(=O)NCCCOCC)ccc2Sc2ccccc21 ... 31.7
20) Cc1ccc(O)c(NC(=O)CCC2CCCCC2)c1 ... 113
21) C/C(=N\O)c1ccc2c3ccccc3n(C)c2c1 ... 89
22) O=c1c2ccccc2nc(/C=C/c2ccc([N+](=O)[O-])o2)n1CCCO ... 83.1
23) COc1cc(C(=O)N/N=C/c2ccsc2C)cc(OC)c1OC ... 48.6
